target: P450cam (cytochrome P450cam), WT (Pseudomonas putida, UniProt P00183, C335A/Y97F); test: visible spectrophotometric titration; format: binding
Readout kind: pKd
Please express pKd as -log10 of the molar concentration.

Tell me the measured pKd of CC1(C)[C@@H]2CC[C@@]1(C)C(=O)C2 , please.
5.46

Every entry's value here was drawn from paper PMC5816979.
